# Kd values compiled below
target: SHP2 N‐SH2 domain (Homo sapiens, UniProt Q06124); construct: SHP2 N-SH2 domain (1–105), C-SH2 domain (106–220), PTP domain (224–541) and; His6 (pETM22 vector) (N, cleaved yes); made in house; host or cells: E. coli BL21(DE3); experiment: Fluorescence polarization (FP) binding assay, SHP2 N-SH2 domain; conditions: 100 nM FAM-labelled peptide, increasing N-SH2 protein, 50 mM HEPES pH 7.5, 150 mM NaCl, 1 mM EDTA, 0.05% Tween 20, FP at 10 min, three independent experiments in technical triplicates, read-out: K D ± SEM, N‐SH2 (FP)
Sequence (Q06124 1-105): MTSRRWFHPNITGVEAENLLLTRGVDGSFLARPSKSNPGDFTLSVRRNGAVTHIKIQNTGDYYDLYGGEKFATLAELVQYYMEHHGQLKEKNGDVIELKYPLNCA
Non-standard residues stand in square brackets, D forms with d. Residues, ends and D or L forms follow the SMILES beside them. *: point of attachment. 5FAM = O=C1OC2(c3ccc(O)cc3Oc3cc(O)ccc32)c2ccc(C(=O)*)cc21; pY = N[C@@H](Cc1ccc(OP(=O)(O)O)cc1)C(=O)O

Compound: CC[C@H](C)[C@H](NC(=O)[C@@H](NC(=O)[C@H](C)NC(=O)[C@H](Cc1ccc(OP(=O)(O)O)cc1)NC(=O)[C@H](CCC(=O)O)NC(=O)[C@@H](NC(=O)[C@H](CCC(N)=O)NC(=O)c1ccc2c(c1)C(=O)OC21c2ccc(O)cc2Oc2cc(O)ccc21)[C@@H](C)O)[C@@H](C)O)C(=O)N[C@H](C(=O)N[C@@H](Cc1ccccc1)C(=O)N1CCC[C@H]1C(N)=O)C(C)C [compound 11] (5FAM-QTE[pY]ATIVFP-NH2)
Target: SHP2 N‐SH2 domain (Homo sapiens, UniProt Q06124)
Kd / nM: 204
--
Compound: CC[C@H](C)[C@H](NC(=O)[C@@H](NC(=O)[C@H](C)NC(=O)[C@H](Cc1ccc(OP(=O)(O)O)cc1)NC(=O)[C@H](CCC(=O)O)NC(=O)[C@H](C)NC(=O)[C@H](CCC(N)=O)NC(=O)[C@H](CCC(=O)O)NC(=O)c1ccc2c(c1)C(=O)OC21c2ccc(O)cc2Oc2cc(O)ccc21)[C@@H](C)O)C(=O)N[C@H](C(=O)N[C@@H](Cc1ccccc1)C(=O)N1CCC[C@H]1C(N)=O)C(C)C [peptide 3] (5FAM-EQAE[pY]ATIVFP-NH2)
Target: SHP2 N‐SH2 domain (Homo sapiens, UniProt Q06124)
Kd / nM: 428
--
Compound: CC[C@H](C)[C@H](NC(=O)[C@@H](NC(=O)[C@H](C)NC(=O)[C@H](Cc1ccc(OP(=O)(O)O)cc1)NC(=O)[C@H](CCC(=O)O)NC(=O)[C@@H](NC(=O)[C@H](CCC(N)=O)NC(=O)[C@H](CCC(=O)O)NC(=O)c1ccc2c(c1)C(=O)OC21c2ccc(O)cc2Oc2cc(O)ccc21)[C@@H](C)O)[C@@H](C)O)C(=O)N[C@@H](C)C(=O)N[C@@H](Cc1ccccc1)C(=O)N1CCC[C@H]1C(N)=O [compound 7] (5FAM-EQTE[pY]ATIAFP-NH2)
Target: SHP2 N‐SH2 domain (Homo sapiens, UniProt Q06124)
Kd / nM: 1080

---

target: SHP2 N‐SH2 domain (Homo sapiens); construct: SHP2 N-SH2 domain (1–105), C-SH2 domain (106–220), PTP domain (224–541) and; His6 (pETM22 vector) (N, cleaved yes); made in house; host or cells: E. coli BL21(DE3); assay: Fluorescence polarization (FP) binding assay, SHP2 N-SH2 domain; details: 100 nM FAM-labelled peptide, increasing N-SH2 protein, 50 mM HEPES pH 7.5, 150 mM NaCl, 1 mM EDTA, 0.05% Tween 20, FP at 10 min, three independent experiments in technical triplicates, read-out: K D ± SEM, N‐SH2 (FP)
Non-standard residues stand in square brackets, D forms with d. Residues, ends and D or L forms follow the SMILES beside them. *: point of attachment. 5FAM = O=C1OC2(c3ccc(O)cc3Oc3cc(O)ccc32)c2ccc(C(=O)*)cc21; pY = N[C@@H](Cc1ccc(OP(=O)(O)O)cc1)C(=O)O
# Kd values compiled below

Molecule: CC[C@H](C)[C@H](NC(=O)[C@H](C)NC(=O)[C@H](C)NC(=O)[C@H](Cc1ccc(OP(=O)(O)O)cc1)NC(=O)[C@H](CCC(=O)O)NC(=O)[C@@H](NC(=O)[C@H](CCC(N)=O)NC(=O)[C@H](CCC(=O)O)NC(=O)c1ccc2c(c1)C(=O)OC21c2ccc(O)cc2Oc2cc(O)ccc21)[C@@H](C)O)C(=O)N[C@H](C(=O)N[C@@H](Cc1ccccc1)C(=O)N1CCC[C@H]1C(N)=O)C(C)C [compound 5] (5FAM-EQTE[pY]AAIVFP-NH2)
Kd / nM: 1140
//
Molecule: CC[C@H](C)[C@H](NC(=O)[C@@H](NC(=O)[C@H](C)NC(=O)[C@H](Cc1ccc(OP(=O)(O)O)cc1)NC(=O)[C@H](CCC(=O)O)NC(=O)[C@@H](NC(=O)[C@H](C)NC(=O)[C@H](CCC(=O)O)NC(=O)c1ccc2c(c1)C(=O)OC21c2ccc(O)cc2Oc2cc(O)ccc21)[C@@H](C)O)[C@@H](C)O)C(=O)N[C@H](C(=O)N[C@@H](Cc1ccccc1)C(=O)N1CCC[C@H]1C(N)=O)C(C)C [peptide 2] (5FAM-EATE[pY]ATIVFP-NH2)
Kd / nM: 58

---

# Kd values compiled below
target: SHP2 C‐SH2 domain (Homo sapiens); construct: SHP2 N-SH2 domain (1–105), C-SH2 domain (106–220), PTP domain (224–541) and; His6 (pETM22 vector) (N, cleaved yes); made in house; host or cells: E. coli BL21(DE3); experiment: Fluorescence polarization (FP) binding assay, SHP2 C-SH2 domain; conditions: 100 nM FAM-labelled peptide, increasing C-SH2 protein, 50 mM HEPES pH 7.5, 150 mM NaCl, 1 mM EDTA, 0.05% Tween 20, FP at 10 min, three independent experiments in technical triplicates, read-out: K D ± SEM, C‐SH2 (FP)
Sequence (Q06124 106-220): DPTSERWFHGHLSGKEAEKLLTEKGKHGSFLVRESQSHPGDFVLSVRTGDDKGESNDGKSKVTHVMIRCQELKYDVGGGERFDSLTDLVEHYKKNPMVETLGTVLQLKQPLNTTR
Non-standard residues stand in square brackets, D forms with d. Residues, ends and D or L forms follow the SMILES beside them. *: point of attachment. 5FAM = O=C1OC2(c3ccc(O)cc3Oc3cc(O)ccc32)c2ccc(C(=O)*)cc21; pY = N[C@@H](Cc1ccc(OP(=O)(O)O)cc1)C(=O)O
Endpoint label: Kd (nM)

Compound: CC[C@H](C)[C@H](NC(=O)[C@@H](NC(=O)[C@H](C)NC(=O)[C@H](Cc1ccc(OP(=O)(O)O)cc1)NC(=O)[C@H](CCC(=O)O)NC(=O)[C@@H](NC(=O)[C@H](CCC(N)=O)NC(=O)c1ccc2c(c1)C(=O)OC21c2ccc(O)cc2Oc2cc(O)ccc21)[C@@H](C)O)[C@@H](C)O)C(=O)N[C@@H](CCCCN)C(=O)N[C@@H](Cc1c[nH]c2ccccc12)C(=O)N1CCC[C@H]1C(N)=O [compound 13] (5FAM-QTE[pY]ATIKWP-NH2)
Readout units: nM
Experimental result: 46.8

Compound: CC[C@H](C)[C@H](NC(=O)[C@@H](NC(=O)[C@H](C)NC(=O)[C@H](Cc1ccc(OP(=O)(O)O)cc1)NC(=O)[C@H](CCC(=O)O)NC(=O)[C@@H](NC(=O)[C@H](CCC(N)=O)NC(=O)c1ccc2c(c1)C(=O)OC21c2ccc(O)cc2Oc2cc(O)ccc21)[C@@H](C)O)[C@@H](C)O)C(=O)N[C@@H](CCCCN)C(=O)N[C@@H](Cc1ccccc1)C(=O)N1CCC[C@H]1C(N)=O [compound 16] (5FAM-QTE[pY]ATIKFP-NH2)
Readout units: nM
Experimental result: 86

Compound: CC[C@H](C)[C@H](NC(=O)[C@@H](NC(=O)[C@H](C)NC(=O)[C@H](Cc1ccc(OP(=O)(O)O)cc1)NC(=O)[C@H](CCC(=O)O)NC(=O)[C@@H](NC(=O)[C@H](CCCCN)NC(=O)c1ccc2c(c1)C(=O)OC21c2ccc(O)cc2Oc2cc(O)ccc21)[C@@H](C)O)[C@@H](C)O)C(=O)N[C@@H](CCCCN)C(=O)N[C@@H](Cc1c[nH]cn1)C(=O)N1CCC[C@H]1C(N)=O [compound 19] (5FAM-KTE[pY]ATIKHP-NH2)
Readout units: nM
Experimental result: 105

---

# pKd values compiled below
molecular target: SHP2 N‐SH2 domain (Homo sapiens, UniProt Q06124); construct: SHP2 N-SH2 domain (1–105), C-SH2 domain (106–220), PTP domain (224–541) and; His6 (pETM22 vector) (N, cleaved yes); made in house; host or cells: E. coli BL21(DE3); assay: Fluorescence polarization (FP) binding assay, SHP2 N-SH2 domain; details: 100 nM FAM-labelled peptide, increasing N-SH2 protein, 50 mM HEPES pH 7.5, 150 mM NaCl, 1 mM EDTA, 0.05% Tween 20, FP at 10 min, three independent experiments in technical triplicates, read-out: K D ± SEM, N‐SH2 (FP)
pKd: −log10 of the molar value. Non-standard residues stand in square brackets, D forms with d. Residues, ends and D or L forms follow the SMILES beside them. *: point of attachment. 5FAM = O=C1OC2(c3ccc(O)cc3Oc3cc(O)ccc32)c2ccc(C(=O)*)cc21; pY = N[C@@H](Cc1ccc(OP(=O)(O)O)cc1)C(=O)O
Endpoint label: pKd

Molecule: CC[C@H](C)[C@H](NC(=O)[C@@H](NC(=O)[C@H](C)NC(=O)[C@H](Cc1ccc(OP(=O)(O)O)cc1)NC(=O)[C@H](CCC(=O)O)NC(=O)[C@@H](NC(=O)[C@H](CCCCN)NC(=O)c1ccc2c(c1)C(=O)OC21c2ccc(O)cc2Oc2cc(O)ccc21)[C@@H](C)O)[C@@H](C)O)C(=O)N[C@@H](CCCCN)C(=O)N[C@@H](Cc1ccccc1)C(=O)N1CCC[C@H]1C(N)=O [compound 15] (5FAM-KTE[pY]ATIKFP-NH2)
Endpoint label: pKd
Op: =
Experimental result: 5.81

Molecule: CC[C@H](C)[C@H](NC(=O)[C@@H](NC(=O)[C@H](C)NC(=O)[C@H](Cc1ccc(OP(=O)(O)O)cc1)NC(=O)[C@H](CCC(=O)O)NC(=O)[C@@H](NC(=O)[C@H](CCC(N)=O)NC(=O)c1ccc2c(c1)C(=O)OC21c2ccc(O)cc2Oc2cc(O)ccc21)[C@@H](C)O)[C@@H](C)O)C(=O)N[C@@H](CCCCN)C(=O)N[C@@H](Cc1ccc(O)cc1)C(=O)N1CCC[C@H]1C(N)=O [compound 17] (5FAM-QTE[pY]ATIKYP-NH2)
Endpoint label: pKd
Op: <
Experimental result: 5.52

Molecule: CC[C@H](C)[C@H](NC(=O)[C@@H](NC(=O)[C@H](C)NC(=O)[C@H](Cc1ccc(OP(=O)(O)O)cc1)NC(=O)[C@H](CCC(=O)O)NC(=O)[C@@H](NC(=O)[C@H](CCC(N)=O)NC(=O)c1ccc2c(c1)C(=O)OC21c2ccc(O)cc2Oc2cc(O)ccc21)[C@@H](C)O)[C@@H](C)O)C(=O)N[C@@H](CCCCN)C(=O)N[C@@H](Cc1c[nH]c2ccccc12)C(=O)N1CCC[C@H]1C(N)=O [compound 13] (5FAM-QTE[pY]ATIKWP-NH2)
Endpoint label: pKd
Op: =
Experimental result: 6.43
